test: Phase 1 Stage 1 clinical pharmacokinetics of SC ZA co-administered with rHuPH20; format: in vivo, human; details: human, serum, sc, serum; ZA 5 mg SC infusion + 24000 Units rHuPH20; 1 h post infusion; n=3; read-out: Mean Conc.
reported property: concentration at 1 h (ng/mL)
Your answer should be a plain number; it is taken to be in ng/mL.

Q: Quick one: concentration at 1 h of `O=P(O)(O)C(O)(Cn1ccnc1)P(=O)(O)O` ?
Ans: 118

---

experiment: Phase 1 Stage 1 clinical pharmacokinetics of SC ZA co-administered with rHuPH20; assay type: in vivo, human; settings: human, serum, sc, […], AUC (0-12 h), Subj 1; ZA […] SC; inf 0.554 hr; PH20 23928 U
reported property: AUC(0-t)

Q: Quick one: AUC(0-t) of `O=P(O)(O)C(O)(Cn1ccnc1)P(=O)(O)O` ?
Ans: 29.2 ng·h/mL

Recorded values, source patent US20090311237A1.
